- method: Cytotoxicity against MDCK cells assessed as cell viability at 30 uM after 48 hrs by MTS assay relative to control
- Type: cell-based, Canis lupus familiaris
- conditions: dog, read-out: Activity
experimentalEndpoint: viability at 48 h, 30 µM (%)

• O=[N+]([O-])c1cc(-c2nnc(SCc3ccccc3Cl)o2)cc([N+](=O)[O-])c1 = 115
• O=[N+]([O-])c1cc(-n2nnnc2SCc2ccc(Cl)c(Cl)c2)cc([N+](=O)[O-])c1 = 84
• O=[N+]([O-])c1cc(-c2nnc(SCc3ccc(Cl)c(Cl)c3)o2)cc([N+](=O)[O-])c1 = 91
• O=[N+]([O-])c1cc(-c2nnc(SCc3ccc(Cl)cc3)o2)cc([N+](=O)[O-])c1 = 110
• O=[N+]([O-])c1cc(-c2nnc(SCc3cccc(Cl)c3)o2)cc([N+](=O)[O-])c1 = 105
• COc1ccc(CSc2nnc(-c3cc([N+](=O)[O-])cc([N+](=O)[O-])c3)o2)cc1 = 119
• O=[N+]([O-])c1cc(-n2nnnc2SCc2ccc(Cl)cc2)cc([N+](=O)[O-])c1 = 85
• O=[N+]([O-])c1cc(-c2nnc(SCc3ccc(Br)cc3)o2)cc([N+](=O)[O-])c1 = 114

Cited source for all entries: ChEMBL document CHEMBL4002566
